Values were extracted from patent US8148422B2.

EXPERIMENTAL SYSTEM: canine TRPM8 (Canis lupus familiaris, UniProt Q1A7N1)
Construct: expressed in transfected cells
Sequence (Q1A7N1 1-1104): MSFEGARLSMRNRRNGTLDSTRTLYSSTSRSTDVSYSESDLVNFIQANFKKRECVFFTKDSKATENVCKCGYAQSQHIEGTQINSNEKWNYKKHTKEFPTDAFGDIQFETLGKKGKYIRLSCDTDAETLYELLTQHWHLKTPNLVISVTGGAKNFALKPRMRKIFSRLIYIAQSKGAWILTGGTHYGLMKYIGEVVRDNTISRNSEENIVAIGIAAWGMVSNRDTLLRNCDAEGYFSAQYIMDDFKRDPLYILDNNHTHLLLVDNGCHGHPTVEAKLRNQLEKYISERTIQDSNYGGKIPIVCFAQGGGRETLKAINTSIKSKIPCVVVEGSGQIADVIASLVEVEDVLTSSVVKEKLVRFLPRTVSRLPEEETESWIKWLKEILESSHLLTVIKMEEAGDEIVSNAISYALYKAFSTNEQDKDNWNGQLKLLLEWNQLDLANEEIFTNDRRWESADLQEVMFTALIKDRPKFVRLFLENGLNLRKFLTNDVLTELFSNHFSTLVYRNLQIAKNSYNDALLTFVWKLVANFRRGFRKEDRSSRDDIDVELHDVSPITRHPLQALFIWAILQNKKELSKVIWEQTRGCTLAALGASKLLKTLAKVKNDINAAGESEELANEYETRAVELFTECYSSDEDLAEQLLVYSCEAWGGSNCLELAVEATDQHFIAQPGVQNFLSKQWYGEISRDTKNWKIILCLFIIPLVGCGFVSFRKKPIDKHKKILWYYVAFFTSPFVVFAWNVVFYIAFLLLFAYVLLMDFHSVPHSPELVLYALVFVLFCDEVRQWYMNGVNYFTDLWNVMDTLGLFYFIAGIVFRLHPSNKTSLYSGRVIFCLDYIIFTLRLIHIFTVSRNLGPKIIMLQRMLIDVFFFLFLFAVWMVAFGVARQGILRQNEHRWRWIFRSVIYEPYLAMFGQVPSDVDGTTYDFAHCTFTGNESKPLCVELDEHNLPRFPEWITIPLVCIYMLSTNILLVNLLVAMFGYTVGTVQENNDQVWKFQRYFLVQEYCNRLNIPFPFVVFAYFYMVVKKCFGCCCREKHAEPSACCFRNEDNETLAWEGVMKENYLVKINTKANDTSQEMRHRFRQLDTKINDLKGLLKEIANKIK
ASSAY TEXT: In vitro canine TRPM8 functional assay (Ca2+-sensitive fluorescent dye, FLIPR or FDSS, icilin challenge)
Format: cell-based
PROTOCOL CONDITIONS: 0.2 μM compound; HEK293 cells stably expressing canine TRPM8; icilin challenge
METRIC: inhibition at 0.2 µM (%)
Answers are plain numbers, in %.

| MOLECULE | EXPERIMENTAL SYSTEM | UNIT SPEC | inhibition at 0.2 µM |
| --- | --- | --- | --- |
| CCCN(CCC)CCS(=O)(=O)N(Cc1ccc(OC(F)(F)F)cc1)c1ccc2ccccc2c1 [Cpd 50] | canine TRPM8 (Canis lupus familiaris, UniProt Q1A7N1) | % | 62 |

Would you mind listing inhibition at 0.2 µM for each of the following molecules?
1. Cc1c(N(Cc2ccc(OC(F)(F)F)cc2)S(=O)(=O)CCN2CCCCC2)sc2ccccc12 [Cpd 18]
2. Cc1c(N(Cc2ccc(F)cc2)S(=O)(=O)CCN(CC(C)C)CC(C)C)sc2ccccc12 [Cpd 76]
3. CC(=O)N(CCS(=O)(=O)N(CCCCC(F)(F)F)c1sc2ccccc2c1C)CC(C)C [Cpd 88]

Outgoing:
[99, 99, 91]

* * *

EXPERIMENTAL SYSTEM: canine TRPM8 (Canis lupus familiaris, UniProt Q1A7N1)
Construct: expressed in transfected cells
ASSAY TEXT: In vitro canine TRPM8 functional assay (Ca2+-sensitive fluorescent dye, FLIPR or FDSS, icilin challenge)
Assay type: cell-based
PROTOCOL CONDITIONS: HEK293 cells stably expressing canine TRPM8; icilin at approx. 80% maximal response; eight-point dose-response; single determinations unless otherwise noted; read-out: IC50
METRIC: IC50 (µM)
Numbers only, in µM.

| COMPOUND | METRIC | UNIT SPEC | NUMERIC VALUE |
| --- | --- | --- | --- |
| Cc1c(N(Cc2ccc(OC(F)(F)F)cc2)S(=O)(=O)CCN(C(C)C)C(C)C)sc2ccccc12 [Cpd 59] | IC50 | µM | 0.008 |
| CCN(CCS(=O)(=O)N(Cc1ccc(OC(F)(F)F)cc1)c1sc2ccccc2c1C)CC(C)C [Cpd 83] | IC50 | µM | 0.017 |
| Cc1c(N(Cc2ccc(F)cc2)S(=O)(=O)CCN2CCCC(F)(F)C2)sc2ccccc12 [Cpd 69] | IC50 | µM | 0.012 |

Would you mind giving IC50 for every compound in the list below?
1. Cc1c(N(Cc2ccc(OC(F)(F)F)cc2)S(=O)(=O)CCN2CCC2)sc2ccccc12 [Cpd 39]
2. Cc1c(N(CCCCC(F)(F)F)S(=O)(=O)CCN(C)Cc2ccccc2)sc2ccccc12 [Cpd 79]
3. Cc1c(N(Cc2ccc(OC(F)(F)F)cc2)S(=O)(=O)CCN2CC(F)(F)C2)sc2ccccc12 [Cpd 46]
4. Cc1c(N(Cc2ccc(F)cc2)S(=O)(=O)CCN(C)Cc2ccccc2)sc2ccccc12 [Cpd 77]
5. Cc1c(N(Cc2ccc(OC(F)(F)F)cc2)S(=O)(=O)CCN2CC(C)CC(C)C2)sc2ccccc12 (centres unmarked) [Cpd 21]
6. CC(=O)N(CCS(=O)(=O)N(CCCCC(F)(F)F)c1sc2ccccc2c1C)CC(C)C [Cpd 88]
7. Cc1c(N(Cc2ccc(OC(F)(F)F)cc2)S(=O)(=O)CCN2CCSCC2)sc2ccccc12 [Cpd 34]
8. CCCN(CCC)CCS(=O)(=O)N(Cc1ccc(OC(F)(F)F)cc1)c1sc2ccccc2c1Cl [Cpd 4]

Outgoing:
1. 0.113
2. 0.037
3. 0.004
4. 0.049
5. 0.052
6. 0.059
7. 0.007
8. 0.024
